Where do these numbers come from? They come from patent US11939314B2.

# target under test: c-Kit(V654A) (Homo sapiens, UniProt P10721, V654A)
# Construct: amino acids 544-end containing the V654A mutation; GST (N)
# Sequence (P10721 544-976 V654A): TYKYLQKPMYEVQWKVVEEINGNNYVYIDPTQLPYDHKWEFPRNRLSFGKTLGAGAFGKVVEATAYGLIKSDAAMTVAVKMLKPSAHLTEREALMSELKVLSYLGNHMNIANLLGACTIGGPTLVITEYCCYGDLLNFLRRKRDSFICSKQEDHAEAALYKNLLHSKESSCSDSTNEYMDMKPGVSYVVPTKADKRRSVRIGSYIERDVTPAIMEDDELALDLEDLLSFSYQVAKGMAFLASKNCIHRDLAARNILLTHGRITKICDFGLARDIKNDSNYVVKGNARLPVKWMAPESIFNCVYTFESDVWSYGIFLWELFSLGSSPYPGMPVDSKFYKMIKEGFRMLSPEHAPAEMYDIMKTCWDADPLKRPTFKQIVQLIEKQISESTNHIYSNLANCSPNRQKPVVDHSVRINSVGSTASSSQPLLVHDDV
# assay procedure: c-Kit(V654A) assay
# condition description: recombinant human c-Kit aa 544-end, 200 μM ATP, 1.4E-06 means 1.4×10^−6, read-out: Inhibition (IC50) of c-KIT (V654A)
Where a name gives a salt, the structure may show the parent alone.
Measured log10 of IC50 accompanies every entry in the list below.
Please note: log10 values; quantity IC50; unit µM.

- compound: "COC1CCN(C(=O)c2ccc(-n3cc(-c4cc5cc(F)c(F)cc5[nH]c4=O)nn3)cc2)CC1"
  log10 of IC50: -1.82

// returns log10 of IC50 for CN(C)C[C@@H]1CCCN1C(=O)c1ccc(-n2cc(-c3cc4cc(F)ccc4[nH]c3=O)nn2)cc1 with c-Kit(V654A) (Homo sapiens, UniProt P10721, V654A); value = -1.57

Entry CN(C)C[C@@H]1CCN(C(=O)c2ccc(-n3cc(-c4cc5cc(F)ccc5[nH]c4=O)nn3)cc2)C1 , c-Kit(V654A) (Homo sapiens, UniProt P10721, V654A) data, log10 of IC50 value: -0.74

# CN1CCN(C(=O)c2ccc(-n3cc(-c4cc5cnccc5[nH]c4=O)nn3)cc2)CC1 with c-Kit(V654A) (Homo sapiens, UniProt P10721, V654A): log10 of IC50 is -0.70

Here CN1CCN(C(=O)c2ccc(-n3cc(-c4cc5cc(Cl)ccc5[nH]c4=O)nn3)cc2)CC1 was tested on c-Kit(V654A) (Homo sapiens, UniProt P10721, V654A), and its log10 of IC50 came to -2.52

The observed log10 of IC50 for CN1CCN(C(=O)c2ccc(-n3cc(-c4cc5c(F)cccc5[nH]c4=O)nn3)cc2)CC1 when tested with c-Kit(V654A) (Homo sapiens, UniProt P10721, V654A) stands at -2.22

Field log10 of IC50 (system: c-Kit(V654A) (Homo sapiens, UniProt P10721, V654A)) for entry N[C@@H]1CCN(C(=O)c2ccc(-n3cc(-c4cc5cc(F)ccc5[nH]c4=O)nn3)cc2)C1 [A313, hydrochloride] = -1.59

// compound COCCO[C@H]1CCN(C(=O)c2ccc(-n3cc(-c4cc5cc(F)ccc5[nH]c4=O)nn3)cc2)C1 , assay c-Kit(V654A) (Homo sapiens, UniProt P10721, V654A), log10 of IC50 value: -0.80

Record CN1CCN(C(=O)c2ccc(-n3cc(-c4cc5cc(F)ccc5[nH]c4=O)nn3)cc2)CCC1=O has c-Kit(V654A) (Homo sapiens, UniProt P10721, V654A) log10 of IC50 equal to -1.41

---

# target under test: c-Kit(V654A) (Homo sapiens, UniProt P10721, V654A)
# Construct: amino acids 544-end containing the V654A mutation; GST (N)
# assay procedure: c-Kit(V654A) assay
# condition description: recombinant human c-Kit aa 544-end, 200 μM ATP, 1.4E-06 means 1.4×10^−6, read-out: Inhibition (IC50) of c-KIT (V654A)
# label = bin(measured IC50), where bins are label 0 (below 20 nM), label 1 (20 nM to below 60 nM), label 2 (60 nM or more)

Consider the worked cases shown below.
- molecule: "COCCO[C@H]1CCN(C(=O)c2ccc(-n3cc(-c4cc5cc(F)ccc5[nH]c4=O)cn3)cc2)C1"
  target under test: "c-Kit(V654A) (Homo sapiens, UniProt P10721, V654A)"
  label: "label 1"
- molecule: "CS(=O)(=O)CC1CCN(C(=O)c2ccc(-n3cc(-c4cc5cc(F)ccc5[nH]c4=O)nn3)cc2)C1 (centres unmarked)"
  target under test: "c-Kit(V654A) (Homo sapiens, UniProt P10721, V654A)"
  label: "label 0"
- molecule: "O=C(c1cccc(-n2cc(-c3cc4ccccc4[nH]c3=O)nn2)c1)N1CCOCC1"
  target under test: "c-Kit(V654A) (Homo sapiens, UniProt P10721, V654A)"
  label: "label 1"

*Q* Into which category would you place CN1CCC(CNC(=O)c2ccc(-n3cc(-c4cc5ccccc5[nH]c4=O)nn3)cc2)CC1 ?
*A* label 1

*Q* Textbook exercise: identify the category of the molecule given here, CO[C@@H]1CN(C(=O)c2ccc(-n3cc(-c4cc5cc(F)ccc5[nH]c4=O)cn3)cc2)C[C@H]1OC , according to its measured value.
*A* label 2
